B1: CPEB3 Ribozyme (parent)
chain: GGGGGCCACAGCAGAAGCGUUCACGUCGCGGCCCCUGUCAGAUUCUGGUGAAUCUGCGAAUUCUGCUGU

# Variants of: B1
# Method: self-cleavage, relative activity (ratio to wild type); higher = more cleavage; co-transcriptional
// self-cleavage lookup, one value per entry

U43A G58C :: 0.901

Qu. Fill blank: measured self-cleavage of the variant G19A U26G is ____.
Ans. 0.19

Data origin: the RNAGym collection of RNA variant scans (doi:10.7554/elife.80360)
